system: human PAH with the R408W mutation (Homo sapiens, UniProt P00439, R408W)
Construct: expressed in transfected cells
Sequence (P00439 whole entry R408W): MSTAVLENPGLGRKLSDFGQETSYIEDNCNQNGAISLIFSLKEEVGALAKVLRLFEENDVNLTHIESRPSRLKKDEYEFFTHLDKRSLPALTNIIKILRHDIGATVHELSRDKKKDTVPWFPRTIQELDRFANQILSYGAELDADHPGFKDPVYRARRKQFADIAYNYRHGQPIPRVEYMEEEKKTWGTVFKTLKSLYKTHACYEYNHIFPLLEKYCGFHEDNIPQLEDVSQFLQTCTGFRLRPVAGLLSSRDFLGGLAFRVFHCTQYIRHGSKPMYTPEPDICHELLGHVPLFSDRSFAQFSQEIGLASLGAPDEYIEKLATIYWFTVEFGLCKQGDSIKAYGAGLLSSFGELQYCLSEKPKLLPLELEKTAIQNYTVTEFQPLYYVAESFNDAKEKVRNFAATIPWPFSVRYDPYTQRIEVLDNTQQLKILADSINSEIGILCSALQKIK
method-summary: Cell Based Phenylalanine Flux Assay
condition-context: A375 cells expressing human R408W PAH; 24 hrs compound incubation; 13C-Tyrosine by LC-MS; average where tested multiple times; read-out: AC50
Entries annotated with measured AC50

Quick one: AC50 of Cc1cccc2cc([C@@H]3c4nc[nH]c4CCN3C(=O)c3ocnc3C(F)(F)F)nn12 ?
< 500 nM

Quick one: AC50 of Cn1nccc1-c1nnc(C(=O)N2CCc3[nH]cnc3[C@@H]2c2cc3cccc(F)n3n2)o1 ?
> 5000 nM

Quick one: AC50 of C[C@@H](O)c1nc(C(F)F)c(C(=O)N2CCc3[nH]cnc3[C@H]2c2cc3cccc(C(F)(F)F)n3n2)o1 ?
500 to 1000 nM

Quick one: AC50 of Cn1ccc(-c2nnc(C(=O)N3CCc4[nH]cnc4[C@@H]3c3cc4cccc(F)n4n3)o2)n1 ?
1000 to 5000 nM

Quick one: AC50 of Cc1cccn2nc([C@@H]3c4nc[nH]c4CCN3C(=O)c3cnn4cc(-c5ccn(C)n5)ccc34)cc12 ?
< 500 nM

Quick one: AC50 of Cc1cccn2nc([C@H]3c4nc[nH]c4CCN3C(=O)c3nnc(-c4cnn(C)c4)o3)cc12 ?
> 5000 nM

Quick one: AC50 of C[C@@H](O)c1nc(C(F)F)c(C(=O)N2CCc3[nH]cnc3[C@@H]2c2cc3c(Cl)cccn3n2)o1 ?
1000 to 5000 nM

----------
Entries annotated with measured AC50
system: human PAH with the R408W mutation (Homo sapiens, UniProt P00439, R408W)
Construct: expressed in transfected cells
method-summary: Cell Based Phenylalanine Flux Assay
condition-context: A375 cells expressing human R408W PAH; 24 hrs compound incubation; 13C-Tyrosine by LC-MS; average where tested multiple times; read-out: AC50

Worked examples follow.
{"query-smiles": "Cc1cccn2nc([C@H]3c4nc[nH]c4CCN3C(=O)c3nnc(N4CCC(F)CC4)o3)cc12", "value-measured": "> 5 µM"}
{"query-smiles": "CC(C)(F)c1nc(C(F)F)c(C(=O)N2CCc3[nH]cnc3[C@H]2c2cc3cccc(Cl)n3n2)o1", "value-measured": "< 0.5 µM"}
{"query-smiles": "Cc1ccc2cc([C@H]3c4nc[nH]c4CCN3C(=O)c3nnc(-c4ccn(C)n4)o3)nn2c1", "value-measured": "> 5 µM"}
{"query-smiles": "COCc1ccc2c(C(=O)N3CCc4[nH]cnc4[C@@H]3c3cc4c(C(F)(F)F)cccn4n3)cnn2c1", "value-measured": "1 to 5 µM"}
{"query-smiles": "O=C(c1cnn2cc(-c3ccccn3)ccc12)N1CCc2[nH]cnc2[C@@H]1c1cc2c(F)cccn2n1", "value-measured": "> 5 µM"}

Find the measured AC50: item Cc1cccc2cc([C@H]3c4nc[nH]c4CCN3c3nnc(C(F)F)o3)nn12 , target or system human PAH with the R408W mutation (Homo sapiens, UniProt P00439, R408W).
> 5 µM

Find the measured AC50: item CC(C)(O)c1nc(C(F)F)c(C(=O)N2CCc3[nH]cnc3[C@@H]2c2cc3ccccn3n2)o1 , target or system human PAH with the R408W mutation (Homo sapiens, UniProt P00439, R408W).
> 5 µM

Find the measured AC50: item O=C(c1nnc(-c2cccnc2)o1)N1CCc2[nH]cnc2[C@@H]1c1cc2c(F)cccn2n1 , target or system human PAH with the R408W mutation (Homo sapiens, UniProt P00439, R408W).
> 5 µM

Find the measured AC50: item Cc1cccc2cc([C@@H]3c4nc[nH]c4CCN3C(=O)c3nnc(-c4ccccn4)o3)nn12 , target or system human PAH with the R408W mutation (Homo sapiens, UniProt P00439, R408W).
< 0.5 µM

----------
system: human PAH with the R408W mutation (Homo sapiens, UniProt P00439, R408W)
Construct: expressed in transfected cells
method-summary: Cell Based Phenylalanine Flux Assay
condition-context: A375 cells expressing human R408W PAH; 24 hrs compound incubation; 13C-Tyrosine by LC-MS; average where tested multiple times; read-out: AC50
Entries annotated with measured AC50

Worked examples follow.
{"molecule": "O=C(c1ocnc1C(F)(F)F)N1CCc2[nH]cnc2[C@H]1c1cc2cccc(C(F)(F)F)n2n1 [Example 1176]", "system": "human PAH with the R408W mutation (Homo sapiens, UniProt P00439, R408W)", "AC50": "< 0.5 µM"}
{"molecule": "Cc1c(-c2nnc(C(=O)N3CCc4[nH]cnc4[C@H]3c3cc4c(C(F)F)cccn4n3)o2)cnn1C [Example 1348]", "system": "human PAH with the R408W mutation (Homo sapiens, UniProt P00439, R408W)", "AC50": "< 0.5 µM"}
{"molecule": "Cn1ccc(-c2nnc(C(=O)N3CCc4[nH]cnc4[C@H]3c3cc4cccc(C(F)F)n4n3)o2)n1 [Example 1438]", "system": "human PAH with the R408W mutation (Homo sapiens, UniProt P00439, R408W)", "AC50": "0.5 to 1 µM"}
{"molecule": "Cn1cc(C(=O)N2CCc3[nH]cnc3[C@@H]2c2cc3ccccn3n2)c(C(F)F)n1 [Example 663]", "system": "human PAH with the R408W mutation (Homo sapiens, UniProt P00439, R408W)", "AC50": "1 to 5 µM"}
{"molecule": "Cc1cccc2cc([C@@H]3c4nc[nH]c4CCN3C(=O)c3nnc(-c4cnccn4)o3)nn12 [Example 1339]", "system": "human PAH with the R408W mutation (Homo sapiens, UniProt P00439, R408W)", "AC50": "< 0.5 µM"}

Quick one: AC50 of Cc1cccn2nc([C@H]3c4nc[nH]c4CCN3C(=O)c3oc(-c4cn(C)cn4)nc3C(F)F)cc12 [Example 930] ?
> 5 µM

----------
system: human PAH with the R408W mutation (Homo sapiens, UniProt P00439, R408W)
Construct: expressed in transfected cells
method-summary: Cell Based Phenylalanine Flux Assay
condition-context: A375 cells expressing human R408W PAH; 24 hrs compound incubation; 13C-Tyrosine by LC-MS; average where tested multiple times; read-out: AC50
observable: AC50

Worked examples follow.
{"query-smiles": "O=C(c1nnc(C2CC(F)(F)C2)o1)N1CCc2[nH]cnc2[C@H]1c1cc2c(C(F)(F)F)cccn2n1", "system": "human PAH with the R408W mutation (Homo sapiens, UniProt P00439, R408W)", "AC50": "500 to 1000 nM"}
{"query-smiles": "O=C(c1nnc(-c2cnn(C(F)F)c2)o1)N1CCc2[nH]cnc2[C@@H]1c1cc2c(C(F)F)cccn2n1", "system": "human PAH with the R408W mutation (Homo sapiens, UniProt P00439, R408W)", "AC50": "> 5000 nM"}
{"query-smiles": "O=C(c1ocnc1C1CC1)N1CCc2[nH]cnc2[C@@H]1c1cc2ccccn2n1", "system": "human PAH with the R408W mutation (Homo sapiens, UniProt P00439, R408W)", "AC50": "1000 to 5000 nM"}

Pending compound:
Find the measured AC50: item Cc1cccc(-c2nnc(C(=O)N3CCc4[nH]cnc4[C@@H]3c3cc4cccc(C)n4n3)o2)n1 , target or system human PAH with the R408W mutation (Homo sapiens, UniProt P00439, R408W).
1000 to 5000 nM

----------
Entries annotated with measured AC50
system: human PAH with the R408W mutation (Homo sapiens, UniProt P00439, R408W)
Construct: expressed in transfected cells
method-summary: Cell Based Phenylalanine Flux Assay;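 further: after compound treatment, cells received sepiapterin plus isotope-labelled Phenylalanine for 4 hours, then labelled Tyrosine in the medium was quantified, 10-point 2-fold dilution series run in duplicate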
condition-context: A375 cells expressing human PAH R408W; 24 hrs compound incubation; 13C-Tyrosine by LC-MS; average where tested multiple times; read-out: AC50

{"compound": "CC(F)(F)c1nnc(N2CCc3[nH]cnc3[C@H]2c2cc3cccc(C(F)F)n3n2)o1", "AC50": "1 to 5 µM"}
{"compound": "Cc1cccc2cc([C@@H]3c4nc[nH]c4CCN3c3nnc(-c4cccnc4F)o3)nn12", "AC50": "0.5 to 1 µM"}
{"compound": "CCc1cccn2nc([C@@H]3c4nc[nH]c4CCN3C(=O)c3nnc(C(C)(C)F)o3)cc12", "AC50": "< 0.5 µM"}
{"compound": "Cc1cccn2nc([C@@H]3c4nc[nH]c4CCN3c3nnc(C4CCC4)o3)cc12", "AC50": "1 to 5 µM"}
{"compound": "CC(C)c1cccn2nc([C@H]3c4nc[nH]c4CCN3C(=O)c3nnc(-c4cnn(C(F)F)c4)o3)cc12", "AC50": "1 to 5 µM"}
{"compound": "COc1cccn2nc([C@@H]3c4nc[nH]c4CCN3C(=O)c3nc(C)nn3C)cc12", "AC50": "1 to 5 µM"}

Find the measured AC50: item O=C(c1nnc(-c2c(F)cccc2F)o1)N1CCc2[nH]cnc2C1c1cc2ccccn2n1 (stereo not shown) , target or system human PAH with the R408W mutation (Homo sapiens, UniProt P00439, R408W).
0.5 to 1 µM

Find the measured AC50: item Cc1cccn2nc([C@H]3c4nc[nH]c4CCN3C(=O)c3cnc(-c4ccccn4)o3)cc12 , target or system human PAH with the R408W mutation (Homo sapiens, UniProt P00439, R408W).
> 5 µM

Find the measured AC50: item COc1cccn2nc([C@@H]3c4nc[nH]c4CCN3c3ccc(C(F)(F)F)cn3)cc12 , target or system human PAH with the R408W mutation (Homo sapiens, UniProt P00439, R408W).
< 0.5 µM

Find the measured AC50: item Fc1cccc(F)c1-c1nnc(N2CCc3[nH]cnc3[C@H]2c2cc3c(C(F)F)cccn3n2)o1 , target or system human PAH with the R408W mutation (Homo sapiens, UniProt P00439, R408W).
< 0.5 µM

Find the measured AC50: item O=C(c1nc2ccccc2o1)N1CCc2[nH]cnc2[C@@H]1c1cc2ccccn2n1 , target or system human PAH with the R408W mutation (Homo sapiens, UniProt P00439, R408W).
> 5 µM

Find the measured AC50: item Cc1cccn2nc([C@@H]3c4nc[nH]c4CCN3c3nnc(C(C)(C)C)o3)cc12 , target or system human PAH with the R408W mutation (Homo sapiens, UniProt P00439, R408W).
0.5 to 1 µM

Find the measured AC50: item Cc1cccn2nc([C@@H]3c4nc[nH]c4CCN3c3ccccc3)cc12 , target or system human PAH with the R408W mutation (Homo sapiens, UniProt P00439, R408W).
< 0.5 µM

Find the measured AC50: item CC(C)c1cccn2nc([C@@H]3c4nc[nH]c4CCN3C(=O)c3nnc(-c4ccn(C)n4)o3)cc12 , target or system human PAH with the R408W mutation (Homo sapiens, UniProt P00439, R408W).
< 0.5 µM

Find the measured AC50: item Cc1cc(-c2nnc(C(=O)N3CCc4[nH]cnc4[C@@H]3c3cc4c(C5CC5)cccn4n3)o2)nn1C , target or system human PAH with the R408W mutation (Homo sapiens, UniProt P00439, R408W).
> 5 µM

Find the measured AC50: item Nc1cnc(N2CCc3[nH]cnc3[C@H]2c2cc3c(C(F)(F)F)cccn3n2)nc1 , target or system human PAH with the R408W mutation (Homo sapiens, UniProt P00439, R408W).
0.5 to 1 µM
